The values you see were collected from patent US9227982B2.

Parameter IC50, tested on human tankyrase 1 PARP catalytic domain, TNKS1P (Homo sapiens (Human)), listed per item.
Sequence (O95271 1112-1317): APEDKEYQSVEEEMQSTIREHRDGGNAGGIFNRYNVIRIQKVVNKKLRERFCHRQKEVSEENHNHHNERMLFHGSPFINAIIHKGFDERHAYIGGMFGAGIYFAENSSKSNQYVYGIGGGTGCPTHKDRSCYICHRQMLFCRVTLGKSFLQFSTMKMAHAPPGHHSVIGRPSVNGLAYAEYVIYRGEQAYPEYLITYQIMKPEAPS
The reply should contain only the number, in µM.

Input: If you can, please state the reported IC50 value of "O=C(CCc1ccccc1)N(Cc1nc2c(c(=O)[nH]1)COCC2)Cc1cncs1" .
Output: 17.5

Input: Same question, "O=C(CCc1ccc(O)cc1)N(Cc1nc2c(c(=O)[nH]1)COCC2)Cc1cccs1" this time
Output: 1.42

Input: Same lookup for "O=C(CCc1cccc(F)c1)N(Cc1nc2c(c(=O)[nH]1)COCC2)Cc1cccs1" , please.
Output: 1.58

Input: Note, next up: "O=C(CCc1ccccc1)N(Cc1nc2c(c(=O)[nH]1)COCC2)Cc1ccccc1F"
Output: 5.61

Input: Query "O=C(CCc1ccccc1)N(CCO)Cc1nc2c(c(=O)[nH]1)COCC2" next
Output: 16.9

Input: Same lookup for "O=C(CCc1ccc(F)cc1)N(Cc1nc2c(c(=O)[nH]1)COCC2)Cc1cccs1" , please.
Output: 0.299

Input: Can you handle "CC(C)(C)C(=O)CN(Cc1nc2c(c(=O)[nH]1)COCC2)C(=O)CCc1ccccc1" next?
Output: 17.1

Input: Now give it for "O=C(CCc1ccccc1)N(Cc1nc2c(c(=O)[nH]1)COCC2)Cc1ncco1" too.
Output: 4.6
